tested on: 415267-285-R-J2-PDC complex spheroid viability; test: Anticancer human tumor 415267-285-R-J2-PDC patient-derived breast carcinoma cell line growth inhibition [POLQ]; conditions: second compound 10 µM; first compound 0.01 µM; stronger effect = lower value
Group membership follows viability, T/C per the scheme low value: < 9%; medium value: ≥ 9% and < 90%; high value: ≥ 90%

compound: COc1cccc(OCCCN)c1-c1cc(Nc2cnc(C#N)cn2)n[nH]1 + COC1C(OC(N)=O)C(O)C(Oc2ccc3c(O)c(NC(=O)c4ccc(O)c(CC=C(C)C)c4)c(=O)oc3c2C)OC1(C)C
measured target: 415267-285-R-J2-PDC complex spheroid viability
group: low value
--
compound: COc1cccc(OCCCN)c1-c1cc(Nc2cnc(C#N)cn2)n[nH]1 + Cc1cccc(N(C)C(=O)C2C(O)CCN2c2nc(C)cc(C(F)(F)F)c2C#N)c1
measured target: 415267-285-R-J2-PDC complex spheroid viability
group: medium value
--
compound: C=CCn1c(=O)c2cnc(Nc3ccc(N4CCN(C)CC4)cc3)nc2n1-c1cccc(C(C)(C)O)n1 + Nc1ccc(C#CCN(C(=O)Cc2ncc(C(F)(F)F)cc2C(F)(F)F)c2ccc(F)cc2)nn1
measured target: 415267-285-R-J2-PDC complex spheroid viability
group: high value
--
compound: CC[C@@]1(O)C(=O)OCc2c1cc1n(c2=O)Cc2cc3c(CN(C)C)c(O)ccc3nc2-1 + Cc1cccc(N(C)C(=O)C2C(O)CCN2c2nc(C)cc(C(F)(F)F)c2C#N)c1
measured target: 415267-285-R-J2-PDC complex spheroid viability
group: medium value
--
compound: CCc1c2c(nc3ccc(O)cc13)-c1cc3c(c(=O)n1C2)COC(=O)[C@]3(O)CC + Cc1cccc(N(C)C(=O)C2C(O)CCN2c2nc(C)cc(C(F)(F)F)c2C#N)c1
measured target: 415267-285-R-J2-PDC complex spheroid viability
group: medium value
--
compound: C=CCn1c(=O)c2cnc(Nc3ccc(N4CCN(C)CC4)cc3)nc2n1-c1cccc(C(C)(C)O)n1 + Cc1cccc(N(C)C(=O)C2C(O)CCN2c2nc(C)cc(C(F)(F)F)c2C#N)c1
measured target: 415267-285-R-J2-PDC complex spheroid viability
group: high value
--
compound: COc1cccc(OCCCN)c1-c1cc(Nc2cnc(C#N)cn2)n[nH]1 + Nc1ccc(C#CCN(C(=O)Cc2ncc(C(F)(F)F)cc2C(F)(F)F)c2ccc(F)cc2)nn1
measured target: 415267-285-R-J2-PDC complex spheroid viability
group: low value
--
compound: CCc1c2c(nc3ccc(O)cc13)-c1cc3c(c(=O)n1C2)COC(=O)[C@]3(O)CC + Nc1ccc(C#CCN(C(=O)Cc2ncc(C(F)(F)F)cc2C(F)(F)F)c2ccc(F)cc2)nn1
measured target: 415267-285-R-J2-PDC complex spheroid viability
group: medium value
--
compound: Cn1ncnc1[C@H]1c2n[nH]c(=O)c3cc(F)cc(c23)N[C@@H]1c1ccc(F)cc1 + Nc1ccc(C#CCN(C(=O)Cc2ncc(C(F)(F)F)cc2C(F)(F)F)c2ccc(F)cc2)nn1
measured target: 415267-285-R-J2-PDC complex spheroid viability
group: high value

* * *

Measured IC50, listed per entry.
Test system: 415267-285-R-J2-PDC complex spheroid viability
Assay: Anticancer human tumor 415267-285-R-J2-PDC cell line growth inhibition [POLQ];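 note: spheroids exposed to compounds for one week before readout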
Details: curve of first compound; second compound 0.0316 µM
Experimental: Multicellular complex tumor spheroid response to Polymerase (POL) inhibitors (novobiocin, ART-558, RP6685) in combination with a variety of drugs and investigational agents in selected tumor cell lines The POL inhibitors (novobiocin, ART-558, and RP6685) were evaluated both individually and in combination with standard of care and investigational anticancer small molecules within a complex spheroid model of solid tumors. . […]

molecule: CCc1c2c(nc3ccc(O)cc13)-c1cc3c(c(=O)n1C2)COC(=O)[C@]3(O)CC + COC1C(OC(N)=O)C(O)C(Oc2ccc3c(O)c(NC(=O)c4ccc(O)c(CC=C(C)C)c4)c(=O)oc3c2C)OC1(C)C
IC50: < 3.16 nM
--
molecule: CCc1cc2c(N3CCc4c(cc(Cn5ccnc5)cc4-c4cn(C)nc4C(F)(F)F)C3=O)ccnc2c(OC)n1 + Nc1ccc(C#CCN(C(=O)Cc2ncc(C(F)(F)F)cc2C(F)(F)F)c2ccc(F)cc2)nn1
IC50: > 10000 nM
--
molecule: Cn1ncnc1[C@H]1c2n[nH]c(=O)c3cc(F)cc(c23)N[C@@H]1c1ccc(F)cc1 + Cc1cccc(N(C)C(=O)C2C(O)CCN2c2nc(C)cc(C(F)(F)F)c2C#N)c1
IC50: > 100 nM
--
molecule: Nc1ccn(C2OC(CO)C(O)C2(F)F)c(=O)n1 (stereo not given) + COC1C(OC(N)=O)C(O)C(Oc2ccc3c(O)c(NC(=O)c4ccc(O)c(CC=C(C)C)c4)c(=O)oc3c2C)OC1(C)C
IC50: < 31.6 nM
--
molecule: CC1COCCN1c1cc(-c2ccnn2C)c2ccnc(-c3ccn[nH]3)c2n1 (stereo not given) + Cc1cccc(N(C)C(=O)C2C(O)CCN2c2nc(C)cc(C(F)(F)F)c2C#N)c1
IC50: < 31.6 nM

* * *

tested on: 415267-285-R-J2-PDC complex spheroid viability; experiment: Anticancer human tumor 415267-285-R-J2-PDC cell line growth inhibition [POLQ]; conditions: second compound 0.316 µM; first compound 1 µM; active = viability on the fitted dose curve at most 10% of control; inactive = the rest;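 note: spheroids exposed to compounds for one week before readout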
Outcomes: active, inactive

compound: CCc1cc2c(N3CCc4c(cc(Cn5ccnc5)cc4-c4cn(C)nc4C(F)(F)F)C3=O)ccnc2c(OC)n1 + COC1C(OC(N)=O)C(O)C(Oc2ccc3c(O)c(NC(=O)c4ccc(O)c(CC=C(C)C)c4)c(=O)oc3c2C)OC1(C)C
group: inactive
--
compound: COc1ccc([C@@H](O)c2cc(-c3ncnc4cc(N5CCOCC5)ccc34)c(F)cc2Cl)nn1 + Nc1ccc(C#CCN(C(=O)Cc2ncc(C(F)(F)F)cc2C(F)(F)F)c2ccc(F)cc2)nn1
group: inactive
--
compound: CC1COCCN1c1cc(C2(O)CC3CCC(C2)O3)c2cnn(-c3ccn[nH]3)c2n1 (stereo not drawn) + COC1C(OC(N)=O)C(O)C(Oc2ccc3c(O)c(NC(=O)c4ccc(O)c(CC=C(C)C)c4)c(=O)oc3c2C)OC1(C)C
group: active
--
compound: C=CC(=O)N1CCN(c2nc(=O)n(-c3c(C)ccnc3C(C)C)c3nc(-c4c(O)cccc4F)c(F)cc23)C(C)C1 (stereo not drawn) + COC1C(OC(N)=O)C(O)C(Oc2ccc3c(O)c(NC(=O)c4ccc(O)c(CC=C(C)C)c4)c(=O)oc3c2C)OC1(C)C
group: inactive
--
compound: CCc1cc2c(N3CCc4c(cc(Cn5ccnc5)cc4-c4cn(C)nc4C(F)(F)F)C3=O)cc(C)nc2c(OC)n1 + Cc1cccc(N(C)C(=O)C2C(O)CCN2c2nc(C)cc(C(F)(F)F)c2C#N)c1
group: inactive
--
compound: CCc1cc2c(N3CCc4c(cc(Cn5ccnc5)cc4-c4cn(C)nc4C(F)(F)F)C3=O)ccnc2c(OC)n1 + Cc1cccc(N(C)C(=O)C2C(O)CCN2c2nc(C)cc(C(F)(F)F)c2C#N)c1
group: inactive
--
compound: COc1cc(C2c3cc4c(cc3C(OC3OC5COC(C)OC5C(O)C3O)C3COC(=O)C23)OCO4)cc(OC)c1O (stereo not drawn) + Nc1ccc(C#CCN(C(=O)Cc2ncc(C(F)(F)F)cc2C(F)(F)F)c2ccc(F)cc2)nn1
group: active
--
compound: CCCS(=O)(=O)Nc1ccc(F)c(C(=O)c2c[nH]c3ncc(-c4ccc(Cl)cc4)cc23)c1F + Cc1cccc(N(C)C(=O)C2C(O)CCN2c2nc(C)cc(C(F)(F)F)c2C#N)c1
group: inactive

* * *

Tested on: 415267-285-R-J2-PDC complex spheroid viability
Assay: Anticancer human tumor 415267-285-R-J2-PDC cell line growth inhibition [POLQ]; active means viability on the fitted dose curve at most 10% of control; inactive means the rest;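 note: spheroids exposed to compounds for one week before readout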
Conditions: second compound 3.16 µM; first compound 3.16 µM
Experimental: Multicellular complex tumor spheroid response to Polymerase (POL) inhibitors (novobiocin, ART-558, RP6685) in combination with a variety of drugs and investigational agents in selected tumor cell lines The POL inhibitors (novobiocin, ART-558, and RP6685) were evaluated both individually and in combination with standard of care and investigational anticancer small molecules within a complex spheroid model of solid tumors. . […]
Outcomes: active, inactive

compound: COc1cc(C2c3cc4c(cc3C(OC3OC5COC(C)OC5C(O)C3O)C3COC(=O)C23)OCO4)cc(OC)c1O (stereo not drawn) + Nc1ccc(C#CCN(C(=O)Cc2ncc(C(F)(F)F)cc2C(F)(F)F)c2ccc(F)cc2)nn1
group: active
//
compound: COc1cccc2c1C(=O)c1c(O)c3c(c(O)c1C2=O)CC(O)(C(=O)CO)CC3OC1CC(N)C(O)C(C)O1 (stereo not drawn) + Cc1cccc(N(C)C(=O)C2C(O)CCN2c2nc(C)cc(C(F)(F)F)c2C#N)c1
group: active
//
compound: CCc1cc2c(N3CCc4c(cc(Cn5ccnc5)cc4-c4cn(C)nc4C(F)(F)F)C3=O)ccnc2c(OC)n1 + Nc1ccc(C#CCN(C(=O)Cc2ncc(C(F)(F)F)cc2C(F)(F)F)c2ccc(F)cc2)nn1
group: inactive
//
compound: CCCS(=O)(=O)Nc1ccc(F)c(C(=O)c2c[nH]c3ncc(-c4ccc(Cl)cc4)cc23)c1F + Cc1cccc(N(C)C(=O)C2C(O)CCN2c2nc(C)cc(C(F)(F)F)c2C#N)c1
group: inactive
//
compound: COc1ccc([C@@H](O)c2cc(-c3ncnc4cc(N5CCOCC5)ccc34)c(F)cc2Cl)nn1 + Cc1cccc(N(C)C(=O)C2C(O)CCN2c2nc(C)cc(C(F)(F)F)c2C#N)c1
group: inactive
//
compound: C=CC(=O)N1CCN(c2nc(=O)n(-c3c(C)ccnc3C(C)C)c3nc(-c4c(O)cccc4F)c(F)cc23)C(C)C1 (stereo not drawn) + COC1C(OC(N)=O)C(O)C(Oc2ccc3c(O)c(NC(=O)c4ccc(O)c(CC=C(C)C)c4)c(=O)oc3c2C)OC1(C)C
group: inactive
//
compound: COc1ccc([C@@H](O)c2cc(-c3ncnc4cc(N5CCOCC5)ccc34)c(F)cc2Cl)nn1 + COC1C(OC(N)=O)C(O)C(Oc2ccc3c(O)c(NC(=O)c4ccc(O)c(CC=C(C)C)c4)c(=O)oc3c2C)OC1(C)C
group: inactive
//
compound: CC1COCCN1c1cc(C2(O)CC3CCC(C2)O3)c2cnn(-c3ccn[nH]3)c2n1 (stereo not drawn) + Cc1cccc(N(C)C(=O)C2C(O)CCN2c2nc(C)cc(C(F)(F)F)c2C#N)c1
group: active
